These measurements were taken from ChEMBL document CHEMBL4725468.

# System: MIA PaCa-2
# ASSAY OVERVIEW: Antiproliferation activity against human MIAPaCa2 cells assessed as reduction in cell viability at 2.5 uM incubated for 48 hrs by MTT assay relative to control
# Format: functional
VALUE KIND: Activity
Just the number plus its unit, please.

Use the examples below as a reference point.
COMPOUND	Activity
Cc1noc(C)c1-c1ccc2c(c1)C(c1ccccc1)N(CCCCCN1C(=O)N(C)c3ccc(-c4c(C)noc4C)cc3C1c1ccccc1)C(=O)N2C (centres undefined)	71.3%
Cc1noc(C)c1-c1ccc2c(c1)C(c1ccccc1)N(CCCCCCCCCCN1C(=O)N(C)c3ccc(-c4c(C)noc4C)cc3C1c1ccccc1)C(=O)N2C (centres undefined)	65.2%
Cc1noc(C)c1-c1ccc2c(c1)C(c1ccccc1)NC(=O)N2C (centres undefined)	59.1%

Next:
Using the record for Cc1noc(C)c1-c1ccc2c(c1)C(c1ccccc1)N(Cc1cn(CCOCCn3cc(CN4C(=O)N(C)c5ccc(-c6c(C)noc6C)cc5C4c4ccccc4)nn3)nn1)C(=O)N2C (centres undefined) , report its Activity.
64%
